# System: KB-8511, Taxol-resistant (Pgp-overexpression) KB cell line
# ASSAY_COMMENT: 72 hour growth-inhibition (cytotoxicity) assay, KB-8511 cells
# MEASUREMENT_SETUP: read-out: KB-8511 IC50; 72 hour growth inhibition, methylene blue staining; mean of 3-5 experiments ± SEM
Provide the reported IC50 of each item.
Numeric only. Scale: nM

Lookup result for C/C(=C\c1csc(C)n1)[C@@H]1C[C@@H]2O[C@]2(C)CCC[C@H](C)[C@H](O)[C@@H](C)C(=O)C(C)(C)[C@@H](O)CC(=O)O1 [EpoB, reference compound] ; measured IC50: 0.39

Lookup result for CSc1nc(/C=C(\C)[C@@H]2C[C@@H]3O[C@]3(C)CCC[C@H](C)[C@H](O)[C@@H](C)C(=O)C(C)(C)[C@@H](O)CC(=O)O2)c(SC)n1C [Compound 13] ; measured IC50: 247

Lookup result for CSCc1nc(/C=C(\C)[C@@H]2C[C@@H]3O[C@]3(C)CCC[C@H](C)[C@H](O)[C@@H](C)C(=O)C(C)(C)[C@@H](O)CC(=O)O2)cs1 [Compound 5] ; measured IC50: 1.97

Lookup result for CSc1cc(/C=C(\C)[C@@H]2C[C@@H]3O[C@]3(C)CCC[C@H](C)[C@H](O)[C@@H](C)C(=O)C(C)(C)[C@@H](O)CC(=O)O2)nn1C [Compound 16] ; measured IC50: 0.14

Lookup result for C/C(=C\c1nc2ccccc2s1)[C@@H]1C[C@@H]2O[C@]2(C)CCC[C@H](C)[C@H](O)[C@@H](C)C(=O)C(C)(C)[C@@H](O)CC(=O)O1 [Compound 7] ; measured IC50: 0.08

Lookup result for CC(=O)SCc1nc(/C=C(\C)[C@@H]2C[C@@H]3O[C@]3(C)CCC[C@H](C)[C@H](O)[C@@H](C)C(=O)C(C)(C)[C@@H](O)CC(=O)O2)cs1 [Compound 6] ; measured IC50: 8.39

Lookup result for C/C(=C\c1nnn(COCc2ccccc2)n1)[C@@H]1C[C@@H]2O[C@]2(C)CCC[C@H](C)[C@H](O)[C@@H](C)C(=O)C(C)(C)[C@@H](O)CC(=O)O1 [Compound 20] ; measured IC50: 4.44

Lookup result for C/C(=C\c1nc(Cl)c2ncn(C)c2n1)[C@@H]1C[C@@H]2O[C@]2(C)CCC[C@H](C)[C@H](O)[C@@H](C)C(=O)C(C)(C)[C@@H](O)CC(=O)O1 [Compound 17] ; measured IC50: 20.2

Lookup result for CSc1nc(/C=C(\C)[C@@H]2C[C@@H]3O[C@]3(C)CCC[C@H](C)[C@H](O)[C@@H](C)C(=O)C(C)(C)[C@@H](O)CC(=O)O2)nc2c1ncn2C [Compound 19] ; measured IC50: 6.21

Lookup result for COc1nc(/C=C(\C)[C@@H]2C[C@@H]3O[C@]3(C)CCC[C@H](C)[C@H](O)[C@@H](C)C(=O)C(C)(C)[C@@H](O)CC(=O)O2)nc2c1ncn2C [Compound 18] ; measured IC50: 7.45

Lookup result for C/C(=C\c1ccn(C)n1)[C@@H]1C[C@@H]2O[C@]2(C)CCC[C@H](C)[C@H](O)[C@@H](C)C(=O)C(C)(C)[C@@H](O)CC(=O)O1 [Compound 14] ; measured IC50: 0.25

Lookup result for CC(=O)O[C@H]1C(=O)[C@@]2(C)[C@H]([C@H](OC(=O)c3ccccc3)[C@]3(O)C[C@H](OC(=O)[C@H](O)[C@@H](NC(=O)c4ccccc4)c4ccccc4)C(C)=C1C3(C)C)[C@]1(OC(C)=O)CO[C@@H]1C[C@@H]2O [Taxol ™, reference compound] ; measured IC50: 1130

Lookup result for C/C(=C\c1ccn(-c2ccccc2)n1)[C@@H]1C[C@@H]2O[C@]2(C)CCC[C@H](C)[C@H](O)[C@@H](C)C(=O)C(C)(C)[C@@H](O)CC(=O)O1 [Compound 15] ; measured IC50: 1.62

Where do these numbers come from? They come from patent US8003801B2.
